src = paper PMC9090415

Biological target: P. falciparum apicoplast DNA polymerase (Pf-apPOL) (Plasmodium falciparum, UniProt Q8ILY1)
Sequence (Q8ILY1 entry or part of it): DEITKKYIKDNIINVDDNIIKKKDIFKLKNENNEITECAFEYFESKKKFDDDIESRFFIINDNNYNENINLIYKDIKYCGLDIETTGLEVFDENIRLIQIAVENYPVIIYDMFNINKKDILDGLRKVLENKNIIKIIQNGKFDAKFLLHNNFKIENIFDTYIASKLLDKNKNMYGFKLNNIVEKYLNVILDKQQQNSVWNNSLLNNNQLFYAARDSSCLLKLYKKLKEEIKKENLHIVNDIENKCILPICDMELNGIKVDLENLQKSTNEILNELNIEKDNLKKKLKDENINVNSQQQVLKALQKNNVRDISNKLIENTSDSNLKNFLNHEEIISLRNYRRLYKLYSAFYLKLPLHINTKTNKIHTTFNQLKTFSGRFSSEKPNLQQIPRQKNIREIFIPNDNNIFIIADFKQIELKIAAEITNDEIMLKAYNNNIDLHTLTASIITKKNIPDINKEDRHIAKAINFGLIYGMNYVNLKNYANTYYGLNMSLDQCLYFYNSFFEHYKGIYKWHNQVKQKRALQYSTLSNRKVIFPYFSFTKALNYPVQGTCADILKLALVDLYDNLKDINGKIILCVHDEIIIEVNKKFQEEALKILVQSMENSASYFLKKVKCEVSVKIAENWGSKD
Test: Fluorescence-based high-throughput DNA polymerase assay (molecular beacon), primary screen and dose-response
Format: biochemical
Conditions: DRC-1; 10'; concentration 80
observation.type: % inhibition Apo pol 10' (%)
Provide only the numeric value, understood in %.

compound: COc1ccc(CNC(=O)Cn2nc3c(c2NC(=O)Cc2cccs2)CSC3)cc1
target.or.system: P. falciparum apicoplast DNA polymerase (Pf-apPOL) (Plasmodium falciparum, UniProt Q8ILY1)
measure.unit: %
% inhibition Apo pol 10': 82.9138
//
compound: O=C(Cn1ccc2c(=O)[nH]ccc21)Nc1cc(F)ccc1F [Molecule 42, O=C(Cn1ccc2c1cc[nH]c2=O)Nc1cc(F)ccc1F]
target.or.system: P. falciparum apicoplast DNA polymerase (Pf-apPOL) (Plasmodium falciparum, UniProt Q8ILY1)
measure.unit: %
% inhibition Apo pol 10': 76.1541
//
compound: O=C1CCCC2=C1C(c1ccccn1)C1=C(CCCC1=O)O2
target.or.system: P. falciparum apicoplast DNA polymerase (Pf-apPOL) (Plasmodium falciparum, UniProt Q8ILY1)
measure.unit: %
% inhibition Apo pol 10': 77.9707
//
compound: CS(=O)(=O)c1cccc(C(=O)Nc2nnc(-c3ccno3)o2)c1
target.or.system: P. falciparum apicoplast DNA polymerase (Pf-apPOL) (Plasmodium falciparum, UniProt Q8ILY1)
measure.unit: %
% inhibition Apo pol 10': 69.7787

# input Can you look up % inhibition Apo pol 10' on P. falciparum apicoplast DNA polymerase (Pf-apPOL) (Plasmodium falciparum, UniProt Q8ILY1) for O=[N+]([O-])/C=C/c1ccc(-c2ccc(Br)cc2)o1 ?
# output 73.881

# input Can you look up % inhibition Apo pol 10' on P. falciparum apicoplast DNA polymerase (Pf-apPOL) (Plasmodium falciparum, UniProt Q8ILY1) for O=C(O)CCS(=O)(=O)c1ccc(-c2ccc(S(=O)(=O)CCC(=O)O)cc2)cc1 ?
# output 87.3536

# input Can you look up % inhibition Apo pol 10' on P. falciparum apicoplast DNA polymerase (Pf-apPOL) (Plasmodium falciparum, UniProt Q8ILY1) for O=C(CSc1nnc(-c2ccncc2)[nH]1)c1ccc(O)c(O)c1 ?
# output 94.9385

# input Can you look up % inhibition Apo pol 10' on P. falciparum apicoplast DNA polymerase (Pf-apPOL) (Plasmodium falciparum, UniProt Q8ILY1) for O=C1C(=Cc2ccccc2O)Oc2ccc(O)cc21 ?
# output 68.8562
